Below, each entry is listed alongside its reported viability, T/C.
# Tested on: 883617-216-R-J1-PDC complex spheroids, growth, % test/control;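 further: exposure lasted 7 days after dosing on day 3 of spheroid growth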
# PROTOCOL DESCRIPTION: Anticancer human tumor 883617-216-R-J1-PDC patient-derived bladder carcinoma cell line growth inhibition [AhR]
# REPORTED CONDITIONS: second compound 0.316 µM; first compound 0.0316 µM; stronger effect = lower value
Entry rule: numbers only, all in %.

// solved cases for viability, T/C follow
{"columns": ["COMPOUND", "viability, T/C / %"],
 "data": [
  ["O=C(c1cc(Cc2n[nH]c(=O)c3ccccc23)ccc1F)N1CCN(C(=O)C2CC2)CC1 + CC(CO)NC(=O)c1cc(-c2ccc(Cl)cc2)nn(-c2cnn(C)c2)c1=O", 80],
  ["COc1cccc2c1C(=O)c1c(O)c3c(c(O)c1C2=O)CC(O)(C(=O)CO)CC3OC1CC(N)C(O)C(C)O1 (stereo unspecified) + Cc1ccccc1N=Nc1ccc(NC(=O)c2ccnn2C)c(C)c1", 67.5],
  ["O=C(C=Cc1cccc(S(=O)(=O)Nc2ccccc2)c1)NO + Cc1ccccc1N=Nc1ccc(NC(=O)c2ccnn2C)c(C)c1", 89.2],
  ["CC1COCCN1c1cc(C2(S(C)(=N)=O)CC2)nc(-c2ccnc3[nH]ccc23)n1 (stereo unspecified) + CC(CO)NC(=O)c1cc(-c2ccc(Cl)cc2)nn(-c2cnn(C)c2)c1=O", 73.3],
  ["O=C(c1cc(Cc2n[nH]c(=O)c3ccccc23)ccc1F)N1CCN(C(=O)C2CC2)CC1 + Cc1cncc(-c2nc(NCCc3c[nH]c4ccccc34)c3ncn(C(C)C)c3n2)c1", 93.5]
]}

System 883617-216-R-J1-PDC complex spheroids, growth, % test/control. Read-out viability, T/C. Item CC1(C)CCC(CN2CCN(c3ccc(C(=O)NS(=O)(=O)c4ccc(NCC5CCOCC5)c([N+](=O)[O-])c4)c(Oc4cnc5[nH]ccc5c4)c3)CC2)=C(c2ccc(Cl)cc2)C1 + CC(CO)NC(=O)c1cc(-c2ccc(Cl)cc2)nn(-c2cnn(C)c2)c1=O . Report value.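 Further: exposure lasted 7 days after dosing on day 3 of spheroid growth.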
83.2

Jot down viability, T/C (883617-216-R-J1-PDC complex spheroids, growth, % test/control) of CC[C@@]1(O)C(=O)OCc2c1cc1n(c2=O)Cc2cc3c(CN(C)C)c(O)ccc3nc2-1 + Cc1cncc(-c2nc(NCCc3c[nH]c4ccccc34)c3ncn(C(C)C)c3n2)c1 .
68.1

Give viability, T/C for NS(=O)(=O)OCC1CC(n2ccc3c(NC4CCc5ccccc54)ncnc32)CC1O (stereo unspecified) + Cc1ccccc1N=Nc1ccc(NC(=O)c2ccnn2C)c(C)c1 tested on 883617-216-R-J1-PDC complex spheroids, growth, % test/control.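 Further: exposure lasted 7 days after dosing on day 3 of spheroid growth.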
131

Give reported viability, T/C for CC1(C)CCC(CN2CCN(c3ccc(C(=O)NS(=O)(=O)c4ccc(NCC5CCOCC5)c([N+](=O)[O-])c4)c(Oc4cnc5[nH]ccc5c4)c3)CC2)=C(c2ccc(Cl)cc2)C1 + Cc1ccccc1N=Nc1ccc(NC(=O)c2ccnn2C)c(C)c1 (883617-216-R-J1-PDC complex spheroids, growth, % test/control)
95.5

# return viability, T/C for CC1COCCN1c1cc(-c2ccnn2C)c2ccnc(-c3ccn[nH]3)c2n1 (stereo unspecified) + CC(CO)NC(=O)c1cc(-c2ccc(Cl)cc2)nn(-c2cnn(C)c2)c1=O , test system: 883617-216-R-J1-PDC complex spheroids, growth, % test/control;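 further: exposure lasted 7 days after dosing on day 3 of spheroid growth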
88.2

Find viability, T/C for COc1cc(Nc2ncc3c(n2)-c2ccc(Cl)cc2C(c2c(F)cccc2OC)=NC3)ccc1C(=O)O + Cc1ccccc1N=Nc1ccc(NC(=O)c2ccnn2C)c(C)c1 on 883617-216-R-J1-PDC complex spheroids, growth, % test/control and write it down.
72.7
